SYSTEM_NAME: Aurora2 kinase (Homo sapiens, UniProt O14965)
Construct: A complete recombinant Aurora2 enzyme; His tag (N); made in house; host or cells: E. coli
Sequence (O14965 whole entry): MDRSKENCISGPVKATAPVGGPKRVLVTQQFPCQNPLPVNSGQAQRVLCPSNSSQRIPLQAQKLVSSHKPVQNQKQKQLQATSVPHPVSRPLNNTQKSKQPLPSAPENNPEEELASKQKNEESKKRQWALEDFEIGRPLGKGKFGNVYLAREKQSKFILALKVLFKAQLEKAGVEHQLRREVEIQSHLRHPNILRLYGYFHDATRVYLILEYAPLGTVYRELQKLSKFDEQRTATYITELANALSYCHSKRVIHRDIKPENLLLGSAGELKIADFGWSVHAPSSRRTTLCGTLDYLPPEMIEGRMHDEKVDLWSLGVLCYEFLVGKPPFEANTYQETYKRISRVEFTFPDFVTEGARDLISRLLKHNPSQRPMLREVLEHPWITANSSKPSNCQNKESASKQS
PROTOCOL: Aurora2 kinase radioactivity scintillation assay using nickel chelate (NuMA substrate)
Format: biochemical
ASSAY_CONTEXT: 10 μM; read-out: Aurora2 % inhib at 10 μM
Listed below: inhibition at 10 µM values for each entry.
Please respond with the number in % and leave the unit unwritten.

Here's what some known entries look like.
COc1ccc(-c2n[nH]c3ccc(NS(=O)(=O)c4ccccc4S(C)(=O)=O)cc23)cc1OC: 98
O=S(=O)(Nc1ccc2[nH]nc(-c3cc4ccccc4[nH]3)c2c1)c1cccs1: 100
CCCCOc1ccc(S(=O)(=O)Nc2ccc3[nH]nc(-c4ccccc4)c3c2)cc1: 26

Now look at this entry.
Lookup: Note down inhibition at 10 µM recorded for CCOc1ccc(-c2n[nH]c3ccc(NS(=O)(=O)c4ccccc4S(C)(=O)=O)cc23)cc1
Found: 95

###

Listed below: inhibition at 30 µM values for each entry.
SYSTEM_NAME: human FAK (Homo sapiens, UniProt Q05397)
Construct: The complete cDNA of human FAK; made in house; host or cells: baculovirus expression system (vector pFastBac HTc)
Sequence (Q05397 whole entry): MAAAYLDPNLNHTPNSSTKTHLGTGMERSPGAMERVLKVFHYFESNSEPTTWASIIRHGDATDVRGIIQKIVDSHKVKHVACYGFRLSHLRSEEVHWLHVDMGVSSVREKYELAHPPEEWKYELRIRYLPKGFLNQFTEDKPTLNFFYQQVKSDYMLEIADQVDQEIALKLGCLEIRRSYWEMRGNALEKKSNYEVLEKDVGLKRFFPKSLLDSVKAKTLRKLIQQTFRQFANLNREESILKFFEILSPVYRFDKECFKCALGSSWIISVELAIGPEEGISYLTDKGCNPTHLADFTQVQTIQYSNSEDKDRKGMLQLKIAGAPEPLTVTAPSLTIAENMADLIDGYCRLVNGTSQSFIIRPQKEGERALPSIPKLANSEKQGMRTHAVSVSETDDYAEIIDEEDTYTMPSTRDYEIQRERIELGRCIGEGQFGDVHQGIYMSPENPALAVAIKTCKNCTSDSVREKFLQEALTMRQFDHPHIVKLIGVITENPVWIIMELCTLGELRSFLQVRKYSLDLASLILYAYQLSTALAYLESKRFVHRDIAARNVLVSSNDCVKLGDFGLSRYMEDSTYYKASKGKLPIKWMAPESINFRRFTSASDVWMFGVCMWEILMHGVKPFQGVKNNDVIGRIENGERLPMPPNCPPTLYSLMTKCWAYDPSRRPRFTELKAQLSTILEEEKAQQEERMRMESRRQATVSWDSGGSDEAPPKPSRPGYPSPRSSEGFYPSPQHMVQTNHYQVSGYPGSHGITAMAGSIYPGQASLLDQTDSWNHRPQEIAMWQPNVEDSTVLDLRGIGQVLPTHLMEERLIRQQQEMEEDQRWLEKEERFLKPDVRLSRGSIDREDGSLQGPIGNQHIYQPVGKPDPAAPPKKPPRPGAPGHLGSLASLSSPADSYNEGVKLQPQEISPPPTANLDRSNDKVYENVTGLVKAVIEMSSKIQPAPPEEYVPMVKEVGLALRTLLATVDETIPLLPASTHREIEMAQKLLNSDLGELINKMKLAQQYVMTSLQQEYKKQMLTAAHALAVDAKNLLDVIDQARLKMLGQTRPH
PROTOCOL: FAK autophosphorylation inhibition, time resolved fluorescence (HTRF) assay
Type: biochemical
ASSAY_CONTEXT: 30 μM (values marked *); read-out: FAK % inhib at 30* μM
// unit must come after the numeric part

Here's what some known entries look like.
O=S(=O)(Nc1ccc2[nH]ncc2c1)c1cccc(F)c1: 67%
CS(=O)(=O)c1ccccc1S(=O)(=O)Nc1ccc2[nH]ncc2c1: 83%
Cc1n[nH]c2ccc(NS(=O)(=O)c3ccc(Cl)c(Cl)c3)cc12: 38%

Lookup: Note down inhibition at 30 µM recorded for O=S(=O)(Nc1ccc2[nH]nc(I)c2c1)c1cccc(F)c1
Found: 92%

Lookup: Note down inhibition at 30 µM recorded for Cc1n[nH]c2ccc(NS(=O)(=O)c3ccccc3S(C)(=O)=O)cc12
Found: 66%

Lookup: Note down inhibition at 30 µM recorded for CS(=O)(=O)c1ccccc1S(=O)(=O)Nc1ccc2[nH]nc(C#N)c2c1
Found: 80%

Lookup: Note down inhibition at 30 µM recorded for NC(=O)c1n[nH]c2ccc(NS(=O)(=O)c3cccc(F)c3)cc12
Found: 76%

Lookup: Note down inhibition at 30 µM recorded for O=S(=O)(Nc1ccc2[nH]nc(-c3ccccc3)c2c1)c1ccc(Cl)c(Cl)c1
Found: 76%

Lookup: Note down inhibition at 30 µM recorded for O=S(=O)(Nc1ccc2[nH]nc(Cl)c2c1)c1cccc(F)c1
Found: 71%

Lookup: Note down inhibition at 30 µM recorded for N#Cc1n[nH]c2ccc(NS(=O)(=O)c3cccc(F)c3)cc12
Found: 85%

Lookup: Note down inhibition at 30 µM recorded for CS(=O)(=O)c1ccccc1S(=O)(=O)Nc1ccc2[nH]nc(Cl)c2c1
Found: 70%

Lookup: Note down inhibition at 30 µM recorded for O=S(=O)(Nc1ccc2[nH]nc(Cl)c2c1)c1ccc(Cl)c(Cl)c1
Found: 75%

Lookup: Note down inhibition at 30 µM recorded for Cc1n[nH]c2ccc(NS(=O)(=O)c3cccc(F)c3)cc12
Found: 68%

###

SYSTEM_NAME: human IGF1R cytoplasmic domain (Homo sapiens)
Construct: The human IGF1R cytoplasmic domain was cloned; made in house; host or cells: SF21 insect cells (baculovirus)
Sequence (P08069 960-1367 limits assumed): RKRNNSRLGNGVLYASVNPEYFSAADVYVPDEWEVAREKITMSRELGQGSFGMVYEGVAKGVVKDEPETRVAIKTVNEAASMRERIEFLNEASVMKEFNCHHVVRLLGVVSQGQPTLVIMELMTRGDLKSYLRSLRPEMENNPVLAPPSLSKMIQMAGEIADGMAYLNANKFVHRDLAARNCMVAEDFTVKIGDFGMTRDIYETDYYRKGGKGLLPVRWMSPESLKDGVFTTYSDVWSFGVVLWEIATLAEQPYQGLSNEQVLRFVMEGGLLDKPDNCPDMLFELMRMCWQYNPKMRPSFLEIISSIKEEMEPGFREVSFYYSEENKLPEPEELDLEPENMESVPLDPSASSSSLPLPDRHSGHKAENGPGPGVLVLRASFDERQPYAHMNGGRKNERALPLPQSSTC
PROTOCOL: IGF1R autophosphorylation inhibition, time resolved fluorescence (HTRF) assay
Assay type: biochemical
ASSAY_CONTEXT: 10 μM; read-out: IGF1R % inhib at 10 μM
MEASURE: inhibition at 10 µM (%)
Please respond with the number in % and leave the unit unwritten.

CS(=O)(=O)c1ccccc1S(=O)(=O)Nc1ccc2[nH]nc(-c3ccc(C(=O)O)cc3)c2c1: 61
CN(C)c1cccc2c(S(=O)(=O)Nc3ccc4[nH]nc(-c5ccccc5)c4c3)cccc12: 84
CS(=O)(=O)c1ccccc1S(=O)(=O)Nc1ccc2[nH]nc(-c3ccc(CO)cc3)c2c1: 73

Lookup: Note down inhibition at 10 µM recorded for Cc1ccc(-c2n[nH]c3ccc(NS(=O)(=O)c4ccccc4S(C)(=O)=O)cc23)cc1C
Found: 75

Lookup: Note down inhibition at 10 µM recorded for O=C(NCc1ccc(S(=O)(=O)Nc2ccc3[nH]nc(-c4ccccc4)c3c2)s1)c1ccccc1
Found: 40

Lookup: Note down inhibition at 10 µM recorded for COc1ccc2[nH]c(-c3n[nH]c4ccc(NS(=O)(=O)c5ccccc5S(C)(=O)=O)cc34)cc2c1
Found: 100

Lookup: Note down inhibition at 10 µM recorded for CS(=O)(=O)c1ccccc1S(=O)(=O)Nc1ccc2[nH]nc(-c3ccc(I)cc3)c2c1
Found: 20

Lookup: Note down inhibition at 10 µM recorded for CS(=O)(=O)c1ccccc1S(=O)(=O)Nc1ccc2[nH]nc(-c3ccc(C#N)cc3)c2c1
Found: 86

Lookup: Note down inhibition at 10 µM recorded for Cc1cc(C)cc(-c2n[nH]c3ccc(NS(=O)(=O)c4ccccc4S(C)(=O)=O)cc23)c1
Found: 72

Lookup: Note down inhibition at 10 µM recorded for CN(C)c1c(F)c(F)c(S(=O)(=O)Nc2ccc3[nH]nc(-c4cc5ccccc5[nH]4)c3c2)c(F)c1F
Found: 53

Lookup: Note down inhibition at 10 µM recorded for CC1(C)[C@H]2CCC1(CS(=O)(=O)Nc1ccc3[nH]nc(-c4ccccc4)c3c1)C(=O)C2
Found: 30

Lookup: Note down inhibition at 10 µM recorded for CC(C)c1ccc(-c2n[nH]c3ccc(NS(=O)(=O)c4ccccc4S(C)(=O)=O)cc23)cc1
Found: 24

Lookup: Note down inhibition at 10 µM recorded for O=S(=O)(Nc1ccc2[nH]nc(-c3ccccc3)c2c1)c1ccccc1OC(F)(F)F
Found: 74

Lookup: Note down inhibition at 10 µM recorded for CS(=O)(=O)c1ccccc1S(=O)(=O)Nc1ccc2[nH]nc(-c3ccc(OCc4ccccc4)cc3)c2c1
Found: 16

Lookup: Note down inhibition at 10 µM recorded for Cc1cc(-c2n[nH]c3ccc(NS(=O)(=O)c4ccccc4S(C)(=O)=O)cc23)ccc1F
Found: 66

Lookup: Note down inhibition at 10 µM recorded for CS(=O)(=O)c1ccccc1S(=O)(=O)Nc1ccc2[nH]nc(NC(=O)c3ccccc3)c2c1
Found: 95

Lookup: Note down inhibition at 10 µM recorded for CS(=O)(=O)c1ccccc1S(=O)(=O)Nc1ccc2[nH]nc(-c3cc(Br)cc(Br)c3)c2c1
Found: 45

Lookup: Note down inhibition at 10 µM recorded for CS(=O)(=O)c1ccccc1S(=O)(=O)Nc1ccc2[nH]nc(-c3cc4ccccc4[nH]3)c2c1
Found: 99

Lookup: Note down inhibition at 10 µM recorded for O=S(=O)(Nc1ccc2[nH]nc(-c3ccccc3)c2c1)c1ccc2ccccc2c1
Found: 78

Lookup: Note down inhibition at 10 µM recorded for CS(=O)(=O)c1ccccc1S(=O)(=O)Nc1ccc2[nH]nc(-c3ccc4c(c3)OCO4)c2c1
Found: 76

###

SYSTEM_NAME: human IGF1R cytoplasmic domain (Homo sapiens)
Construct: The human IGF1R cytoplasmic domain was cloned; made in house; host or cells: SF21 insect cells (baculovirus)
PROTOCOL: IGF1R autophosphorylation inhibition, time resolved fluorescence (HTRF) assay
Assay type: biochemical
ASSAY_CONTEXT: 10 μM; read-out: IGF1R % inhib at 10 μM
Classification field: True = inhibition at 10 µM at or over 70%; False = inhibition at 10 µM under 70%.

Recorded results for 3 compounds are shown here.
O=S(=O)(Nc1ccc2[nH]nc(-c3ccccc3)c2c1)c1ccc(F)cc1 [Example 117]: False
O=[N+]([O-])c1ccc(S(=O)(=O)Nc2ccc3[nH]nc(-c4ccccc4)c3c2)cc1 [Example 119]: False
CS(=O)(=O)c1ccccc1S(=O)(=O)Nc1ccc2[nH]nc(-c3ccco3)c2c1 [Example 53]: True

Lookup: // inclusive: inhibition at 10 µM at least 70%? input: CS(=O)(=O)c1ccccc1S(=O)(=O)Nc1ccc2[nH]nc(NCc3ccccc3)c2c1 [Example 36]
Found: True

Lookup: // inclusive: inhibition at 10 µM at least 70%? input: CS(=O)(=O)c1ccccc1S(=O)(=O)Nc1ccc2[nH]nc(-c3cccc(O)c3)c2c1 [Example 200]
Found: True

Lookup: // inclusive: inhibition at 10 µM at least 70%? input: CS(=O)(=O)c1ccccc1S(=O)(=O)Nc1ccc2[nH]nc(-c3ccc(-c4ccccc4)c(F)c3)c2c1 [Example 210]
Found: False

###

Listed below: inhibition at 10 µM values for each entry.
SYSTEM_NAME: Aurora2 kinase (Homo sapiens, UniProt O14965)
Construct: A complete recombinant Aurora2 enzyme; His tag (N); made in house; host or cells: E. coli
PROTOCOL: Aurora2 kinase radioactivity scintillation assay using nickel chelate (NuMA substrate)
Type: biochemical
ASSAY_CONTEXT: 10 μM; read-out: Aurora2 % inhib at 10 μM
Please respond with the number in % and leave the unit unwritten.

O=C(NCc1ccc(S(=O)(=O)Nc2ccc3[nH]nc(-c4ccccc4)c3c2)s1)c1ccccc1: 71
O=[N+]([O-])c1ccccc1CS(=O)(=O)Nc1ccc2[nH]nc(-c3ccccc3)c2c1: 84
Nc1cc(Cl)cc(Cl)c1S(=O)(=O)Nc1ccc2[nH]nc(-c3ccccc3)c2c1: 77

Lookup: Note down inhibition at 10 µM recorded for CS(=O)(=O)c1ccccc1S(=O)(=O)Nc1ccc2[nH]nc(-c3cccc(C(F)(F)F)c3)c2c1
Found: 88

Lookup: Note down inhibition at 10 µM recorded for CS(=O)(=O)c1ccccc1S(=O)(=O)Nc1ccc2[nH]nc(-c3ccc(CO)cc3)c2c1
Found: 88
